Biological target: Gastrin/cholecystokinin type B receptor (Homo sapiens)
Sequence (P32239 whole entry): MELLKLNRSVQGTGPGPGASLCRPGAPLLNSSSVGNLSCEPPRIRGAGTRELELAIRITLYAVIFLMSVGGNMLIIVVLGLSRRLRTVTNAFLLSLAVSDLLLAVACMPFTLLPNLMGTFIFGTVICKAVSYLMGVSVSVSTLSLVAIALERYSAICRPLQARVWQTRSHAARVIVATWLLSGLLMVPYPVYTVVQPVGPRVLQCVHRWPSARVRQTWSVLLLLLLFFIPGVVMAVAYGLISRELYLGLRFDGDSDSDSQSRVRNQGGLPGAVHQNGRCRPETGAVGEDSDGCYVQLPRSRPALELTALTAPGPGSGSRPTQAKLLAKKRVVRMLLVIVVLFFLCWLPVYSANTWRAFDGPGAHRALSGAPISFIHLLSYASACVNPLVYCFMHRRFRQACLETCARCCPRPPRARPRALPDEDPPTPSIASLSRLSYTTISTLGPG
Header: Ki / Gastrin/cholecystokinin type B receptor (Homo sapiens) / multiple publications

O=C(NCCc1ccccc1)c1ccc(Cl)cc1NS(=O)(=O)c1cccc2nsnc12 | 6310 nM

Prompt: May I ask what Ki has been recorded for "O=C(c1ccc(Br)cc1NS(=O)(=O)c1ccc(-c2cc(C(F)(F)F)on2)s1)N1CCCCC1" ?
Completion: 5010 nM

Prompt: Would you mind doing "O=C(N[C@@H](Cc1ccc(Cl)c(Cl)c1)C(=O)O)c1ccc(I)cc1NS(=O)(=O)c1cccc2nsnc12" as well?
Completion: 25.1 nM

Prompt: Would you mind doing "O=C(NCc1ccc(Cl)cc1)c1ccc(Br)cc1NS(=O)(=O)c1cccc2nsnc12" as well?
Completion: 501 nM

Prompt: Would you mind doing O=C(Nc1ccccc1C(=O)NC(Cc1ccccc1)C(=O)O)c1cc2ccccc2[nH]1 (racemic) as well?
Completion: 22000 nM

Prompt: Would you mind doing "O=C(c1ccc(Br)cc1NS(=O)(=O)c1c(F)cccc1F)N1CCCCC1" as well?
Completion: 501 nM
